- MEASUREMENT_DESCRIPTION: NCI Yeast Anticancer Drug Screen. Data for the cln2 rad14 strain (AID 165);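 note: 0% = growth equal to vehicle treated cultures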
- CONDITION_DESCRIPTION: S. cerevisiae cln2 rad14 strain, active compounds read high; at 50.0 µM unless noted
Compounds without any hit were thinned out: in the full panel of roughly 79,000, 15% have a hit.
As shown below, each of these molecules has a reported growth inhibition value.
Value expressed in %; do not type the unit.

Use the examples below as a reference point.
[
  {
    "MOLECULE": "CCOC(=O)c1[nH]c(C)c(C#N)c1C",
    "PROPERTY_NAME": "growth inhibition",
    "RESULT": -34.6
  },
  {
    "MOLECULE": "O=C(O)COc1ccc(NC(=O)COc2ccc(Cl)c(Cl)c2)cc1",
    "PROPERTY_NAME": "growth inhibition",
    "RESULT": -30.1
  }
]

--- query ---
Dear colleague, I am looking for the recorded growth inhibition of the following molecule: `CCC(CC)C(=O)NCCNC(=O)C(CC)CC`
-30.1
